test system: Saccharomyces cerevisiae; assay: protein stability index of tFT-peptide fusion (C-terminal peptide) (PSI (0-1 scale)); higher = more stable (slower turnover); conditions: genetic background: wild type; temperature: 30 C
Please go through the items and note down their protein stability index.

Task: Give reported protein stability index value for RQSRERALGIKR [PRP22 C-terminal 12 aa]
Output: 0.701

Task: Give reported protein stability index value for TLEDEALQRNSK [JNM1 C-terminal 12 aa]
Output: 0.686

Task: Give reported protein stability index value for KQKALRGEFGAF [RNA15 C-terminal 12 aa]
Output: 0.688

Task: Give reported protein stability index value for DDNDTSAYYEDN [GSY1 C-terminal 12 aa]
Output: 0.803

Task: Give reported protein stability index value for HAQKRVSNASAR [SKI6 C-terminal 12 aa]
Output: 0.699

Task: Give reported protein stability index value for YMMNSQSPRGKI [POM34 C-terminal 12 aa]
Output: 0.732

Task: Give reported protein stability index value for AEIIDSLLEQIN [NSI1 C-terminal 12 aa]
Output: 0.68

Task: Give reported protein stability index value for GELSVDEKKKIY [ERV29 C-terminal 12 aa]
Output: 0.657

====

tested on: Saccharomyces cerevisiae; assay: protein stability index of tFT-peptide fusion (C-terminal peptide) (PSI (0-1 scale)); higher = more stable (slower turnover); settings: genetic background: wild type; temperature: 30 C
propertyLabel: protein stability index
# output: bare number, no unit

Task: Give Saccharomyces cerevisiae protein stability index for the following sequence: KKRNWKRREASS [NRG2 C-terminal 12 aa]
Output: 0.626

Task: Give Saccharomyces cerevisiae protein stability index for the following sequence: LTWSLAYSGAFS [ACF2 C-terminal 12 aa]
Output: 0.686

Task: Give Saccharomyces cerevisiae protein stability index for the following sequence: FTNALKNMYFSA [YJR037W C-terminal 12 aa]
Output: 0.585

Task: Give Saccharomyces cerevisiae protein stability index for the following sequence: LEKEKLFNNGNH [PRI2 C-terminal 12 aa]
Output: 0.722

Task: Give Saccharomyces cerevisiae protein stability index for the following sequence: EQEVIFTDLTAY [ECM32 C-terminal 12 aa]
Output: 0.7

Task: Give Saccharomyces cerevisiae protein stability index for the following sequence: EALVKQITSVKQ [SCC4 C-terminal 12 aa]
Output: 0.701

Task: Give Saccharomyces cerevisiae protein stability index for the following sequence: MQRVSTQHEKET [PMA1 C-terminal 12 aa]
Output: 0.698

Task: Give Saccharomyces cerevisiae protein stability index for the following sequence: LADEEDAIHDEL [PDI1 C-terminal 12 aa]
Output: 0.678

Task: Give Saccharomyces cerevisiae protein stability index for the following sequence: LISFGMGNTQVI [CLN2 C-terminal 12 aa]
Output: 0.685

Task: Give Saccharomyces cerevisiae protein stability index for the following sequence: GAGWSGFKKVFK [GYL1 C-terminal 12 aa]
Output: 0.722

Task: Give Saccharomyces cerevisiae protein stability index for the following sequence: MEDILDETTELD [ATG40 C-terminal 12 aa]
Output: 0.715

Task: Give Saccharomyces cerevisiae protein stability index for the following sequence: ILLTPNNHGEMK [BDH1 C-terminal 12 aa]
Output: 0.684

Task: Give Saccharomyces cerevisiae protein stability index for the following sequence: KISKSELEGVPS [MTC6 C-terminal 12 aa]
Output: 0.714

Task: Give Saccharomyces cerevisiae protein stability index for the following sequence: KGNSMVVHGAQS [SHE3 C-terminal 12 aa]
Output: 0.685

Task: Give Saccharomyces cerevisiae protein stability index for the following sequence: RCGALSEKLVFL [FMT1 C-terminal 12 aa]
Output: 0.697

Task: Give Saccharomyces cerevisiae protein stability index for the following sequence: KWCASYSAGNRR [YLR280C C-terminal 12 aa]
Output: 0.675

Task: Give Saccharomyces cerevisiae protein stability index for the following sequence: EEFSSGDYSMDY [RIE1 C-terminal 12 aa]
Output: 0.66

Task: Give Saccharomyces cerevisiae protein stability index for the following sequence: PEHPGNKRAGSG [YER145C-A C-terminal 12 aa]
Output: 0.698

====

tested on: Saccharomyces cerevisiae; assay: protein stability index of tFT-peptide fusion (C-terminal peptide) (PSI (0-1 scale)); higher = more stable (slower turnover); details: genetic background: cdc53-1; temperature: 37 C
Please go through the items and note down their protein stability index.
# output: bare number, no unit

Task: Give reported protein stability index value for SPAIRAILAPAG
Output: 0.504

Task: Give reported protein stability index value for GLGVIFFLLGYG
Output: 0.507

Task: Give reported protein stability index value for APPFPPPPARSL
Output: 0.713

Task: Give reported protein stability index value for GVKSQLYSFVWF
Output: 0.74

Task: Give reported protein stability index value for LCFVFVLGFFAF
Output: 0.484

Task: Give reported protein stability index value for VFFIFFFAFLFF
Output: 0.289

Task: Give reported protein stability index value for VYIVLLLLFLRP
Output: 0.378

Task: Give reported protein stability index value for PRFWFYLSYSVH
Output: 0.514

Task: Give reported protein stability index value for LNALSHCRAICS
Output: 0.687

Task: Give reported protein stability index value for LVSYHKMAISSF
Output: 0.58

====

system: Saccharomyces cerevisiae; experiment: protein stability index of tFT-peptide fusion (C-terminal peptide) (PSI (0-1 scale)); higher = more stable (slower turnover); conditions: genetic background: wild type; temperature: 37 C
propertyLabel: protein stability index
# output: bare number, no unit

Task: Give reported protein stability index value for GSGCLFNRWRIL
Output: 0.46

Task: Give reported protein stability index value for AFAFLLHRFLLV
Output: 0.142

Task: Give reported protein stability index value for LGNVTDVMHRLS
Output: 0.617

Task: Give reported protein stability index value for FICYDRILTVYY
Output: 0.489

Task: Give reported protein stability index value for SLLLLSLCRFVG
Output: 0.384

Task: Give reported protein stability index value for EGALSGGGKTSG
Output: 0.692

Task: Give reported protein stability index value for CWLFCACFVRLV
Output: 0.0762

Task: Give reported protein stability index value for VFIPFGFCLCFV
Output: 0.44

Task: Give reported protein stability index value for VIAFFSVLKRYV
Output: 0.465

Task: Give reported protein stability index value for CSSSNRRRYFVL
Output: 0.191

Task: Give reported protein stability index value for ICFPLQIFRILV
Output: 0.345

Task: Give reported protein stability index value for YIYIFLVWGWYC
Output: 0.201

Task: Give reported protein stability index value for VGAGVFAWLWVA
Output: 0.135

Task: Give reported protein stability index value for RPNTFRTRAKAL
Output: 0.333

Task: Give reported protein stability index value for PRFCVYARFHNT
Output: 0.567

Task: Give reported protein stability index value for VLPLRCSWAAQG
Output: 0.538

Task: Give reported protein stability index value for RARLRFASLRAF
Output: 0.217

Task: Give reported protein stability index value for LCFVFVLGFFAF
Output: 0.501

Task: Give reported protein stability index value for GWLSVLVYFLSG
Output: 0.481

Task: Give reported protein stability index value for SLSCYSFFVLAL
Output: 0.513

Task: Give reported protein stability index value for GSWGGGWRYVGW
Output: 0.759

Task: Give reported protein stability index value for LIFLSISFISSL
Output: 0.286

Task: Give reported protein stability index value for ISSYKFLRIVLV
Output: 0.191

Task: Give reported protein stability index value for VKSAVLLFFLVT
Output: 0.312

Task: Give reported protein stability index value for WVFVETVFLVCG
Output: 0.285

Task: Give reported protein stability index value for LVLGLYGVWLVV
Output: 0.356

Task: Give reported protein stability index value for CDSRIRKIWSYL
Output: 0.494

Task: Give reported protein stability index value for RPIFAYRPLRFL
Output: 0.503

Task: Give reported protein stability index value for FFLRFGLFLFTL
Output: 0.493

Task: Give reported protein stability index value for QVGRPRVGFSRR
Output: 0.73

Task: Give reported protein stability index value for RILSLQFILCKR
Output: 0.546

Task: Give reported protein stability index value for PLLPCRPILFLL
Output: 0.182

Task: Give reported protein stability index value for AITLPMCPLLLR
Output: 0.157

Task: Give reported protein stability index value for RRVPVHIHFSLF
Output: 0.393

====

tested on: Saccharomyces cerevisiae; test: protein stability index of tFT-peptide fusion (C-terminal peptide) (PSI (0-1 scale)); higher = more stable (slower turnover); conditions: genetic background: wild type; temperature: 30 C
Class label 1: protein stability index at least 0.7. Class label 0: protein stability index below 0.7.

Task: Tell me whether protein stability index is at least 0.7 here: SAPFSPSLTHHP
Output: label 1

Task: Tell me whether protein stability index is at least 0.7 here: LLSSSLPVCLWS
Output: label 1

Task: Tell me whether protein stability index is at least 0.7 here: KIDKLRKRQRKK
Output: label 0

Task: Tell me whether protein stability index is at least 0.7 here: WVGWVACGAGGG
Output: label 0

Task: Tell me whether protein stability index is at least 0.7 here: GGSGGRVGVAGG
Output: label 0

Task: Tell me whether protein stability index is at least 0.7 here: LGARELTFALLR
Output: label 0

Task: Tell me whether protein stability index is at least 0.7 here: SLLLRVLCGRLS
Output: label 0

Task: Tell me whether protein stability index is at least 0.7 here: HSPPPPFSPFSP
Output: label 0

Task: Tell me whether protein stability index is at least 0.7 here: VVGGVLRFLLLW
Output: label 0

Task: Tell me whether protein stability index is at least 0.7 here: KFKVLKVLEVRL
Output: label 0

Task: Tell me whether protein stability index is at least 0.7 here: ISCFRLGFVRKI
Output: label 0

Task: Tell me whether protein stability index is at least 0.7 here: SALRALRPGSLP
Output: label 1

Task: Tell me whether protein stability index is at least 0.7 here: QPGDVWEFGVLL
Output: label 1

Task: Tell me whether protein stability index is at least 0.7 here: LGVPPVLLLASS
Output: label 0

Task: Tell me whether protein stability index is at least 0.7 here: SHEARMVCGSSV
Output: label 0

Task: Tell me whether protein stability index is at least 0.7 here: LSGWVLVGNWGN
Output: label 0

Task: Tell me whether protein stability index is at least 0.7 here: HPSPPPPPPFPT
Output: label 1
